- TARGET_OR_TEST_SYSTEM: leucine-rich repeat kinase 2 (LRRK2) (Homo sapiens, UniProt Q5S007)
- Construct: LRRK2^RCKW (ROC, COR, Kinase, WD40)
- Sequence (Q5S007 1327-2527 limits assumed): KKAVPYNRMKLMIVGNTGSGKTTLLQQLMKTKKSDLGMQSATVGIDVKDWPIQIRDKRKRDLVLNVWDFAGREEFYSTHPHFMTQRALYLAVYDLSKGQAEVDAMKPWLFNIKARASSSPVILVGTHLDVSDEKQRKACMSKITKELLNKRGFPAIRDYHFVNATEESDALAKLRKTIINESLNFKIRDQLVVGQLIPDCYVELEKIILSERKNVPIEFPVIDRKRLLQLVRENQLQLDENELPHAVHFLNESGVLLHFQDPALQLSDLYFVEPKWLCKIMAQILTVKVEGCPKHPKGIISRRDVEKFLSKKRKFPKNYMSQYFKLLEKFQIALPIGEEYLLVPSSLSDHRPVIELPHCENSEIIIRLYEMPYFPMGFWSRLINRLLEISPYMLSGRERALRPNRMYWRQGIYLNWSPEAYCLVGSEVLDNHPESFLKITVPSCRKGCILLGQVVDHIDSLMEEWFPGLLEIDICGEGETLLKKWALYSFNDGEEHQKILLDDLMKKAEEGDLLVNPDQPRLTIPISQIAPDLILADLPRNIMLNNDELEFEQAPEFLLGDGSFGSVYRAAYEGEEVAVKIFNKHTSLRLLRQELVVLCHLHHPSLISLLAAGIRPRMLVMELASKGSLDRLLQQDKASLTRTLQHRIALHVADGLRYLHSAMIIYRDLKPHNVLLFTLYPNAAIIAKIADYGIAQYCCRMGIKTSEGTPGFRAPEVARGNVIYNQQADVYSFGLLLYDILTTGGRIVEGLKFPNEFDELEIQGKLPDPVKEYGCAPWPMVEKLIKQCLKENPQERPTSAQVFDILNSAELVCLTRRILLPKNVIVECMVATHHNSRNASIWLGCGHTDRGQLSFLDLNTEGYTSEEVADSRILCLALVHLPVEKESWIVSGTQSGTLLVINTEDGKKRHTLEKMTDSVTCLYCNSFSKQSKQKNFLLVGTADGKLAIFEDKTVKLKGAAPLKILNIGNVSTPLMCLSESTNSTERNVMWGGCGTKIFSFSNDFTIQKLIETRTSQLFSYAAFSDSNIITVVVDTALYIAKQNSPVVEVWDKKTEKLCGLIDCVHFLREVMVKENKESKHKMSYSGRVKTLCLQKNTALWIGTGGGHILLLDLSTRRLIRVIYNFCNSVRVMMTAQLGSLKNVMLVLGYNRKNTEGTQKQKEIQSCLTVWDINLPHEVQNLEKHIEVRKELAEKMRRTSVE
- EXPERIMENT_DESCRIPTION: biochemical
- Design: PhosphoSense kinase activity assay, purified LRRK2 RCKW
- MEASUREMENT_PARAMETERS: read-out: IC50 [nM]
RECORDED_METRIC: IC50

CC(C)(C)c1cc(NC(=O)Nc2ccc3cn[nH]c3c2)n(-c2ccc3ncccc3c2)n1 [compound 53]    > 15000 nM

Then this molecule:
Look up IC50 with leucine-rich repeat kinase 2 (LRRK2) (Homo sapiens, UniProt Q5S007) for this molecule: Cc1ccc(-n2nc(C(C)(C)C)cc2NC(=O)Nc2ccc3cn[nH]c3c2)cc1 [compound 54] > 15000 nM

Value source: paper doi:10.1101/2024.09.17.613365
